Molecular target: Nonstructural protein 1 (Influenza A virus)
Sequence (Q194T2 whole entry): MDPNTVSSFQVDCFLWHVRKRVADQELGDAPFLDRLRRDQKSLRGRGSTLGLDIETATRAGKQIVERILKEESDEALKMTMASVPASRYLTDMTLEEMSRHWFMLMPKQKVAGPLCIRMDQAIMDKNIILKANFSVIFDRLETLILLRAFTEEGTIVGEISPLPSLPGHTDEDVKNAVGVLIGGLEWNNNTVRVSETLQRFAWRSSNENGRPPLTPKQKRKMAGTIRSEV
Format: functional, Influenza A virus (A/California/07/2009(H1N1))
The source made the active and inactive calls.

CHEM_SMILES | TARGET_OR_SYSTEM | IC50
O=[N+]([O-])c1ccc(O)c(/C=N/Nc2ccc(Cl)nn2)c1 | Nonstructural protein 1 (Influenza A virus) | 1.32 µM (active)
COc1ccc(N2CCN(C(=O)c3cccc(Cn4cc(Cl)cn4)c3)CC2)cc1 | Nonstructural protein 1 (Influenza A virus) | > 100 µM (active)
Cc1cc(C)cc(Nc2c([N+](=O)[O-])nn(-c3ccc(Cl)cc3)[n+]2[O-])c1 | Nonstructural protein 1 (Influenza A virus) | > 100 µM (active)
O=C(CN1CC(=O)Oc2ccccc21)NCc1ccco1 | Nonstructural protein 1 (Influenza A virus) | 6.58 µM (active)
CN(CCCC(=O)O)c1ccc(N=Nc2ccc([N+](=O)[O-])cc2)cc1 | Nonstructural protein 1 (Influenza A virus) | 9.48 µM (active)
Cc1cc(N(CCO)CCO)ccc1N=Nc1cc(F)ccc1F | Nonstructural protein 1 (Influenza A virus) | 19.2 µM (active)
O=C(NNC(=S)Nc1ccc(Cl)c(Cl)c1)c1ccccn1 | Nonstructural protein 1 (Influenza A virus) | 5.57 µM (active)
S=c1sscc1-c1ccccc1 | Nonstructural protein 1 (Influenza A virus) | 32.7 µM (active)
COc1ccc(OC)c(-c2c3cc(O)c(=O)cc-3oc3cc(O)c(O)cc23)c1 | Nonstructural protein 1 (Influenza A virus) | 20.3 µM (active)
CCOC(=O)CC1=NN(c2ccccc2)C(=O)/C1=C\c1ccc(N(C)C)cc1 | Nonstructural protein 1 (Influenza A virus) | 15.7 µM (active)
c1ccc(-c2nc(NCc3ccco3)c3ccccc3n2)nc1 | Nonstructural protein 1 (Influenza A virus) | 14.5 µM (active)

====

Tested on: BJ
Assay: cytotoxicity toward BJ-TERT-LT-ST fibroblasts, dose response, cell-based, RAS-independent, luminescence (AID 1935);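 further: BJ fibroblasts immortalized with TERT plus LT and ST oncogenes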
Format: functional
Conditions: Homo sapiens
Calls of active or inactive are those of the source.
Parameter EC50: see the listing below.
MEASURED_METRIC: EC50

COMPOUND | MEASURED_METRIC | MEASUREMENT
COc1ccc(CCNc2nnc(Sc3nnnn3-c3ccccc3)s2)cc1OC | EC50 | 2.35 µM (inconclusive)
O=Cc1[nH]c2ccccc2c1N(C(=O)CCl)c1ccc([N+](=O)[O-])cc1 | EC50 | 4.03 µM (active)
O=C(Nc1ccc(-c2nc3ccccc3[nH]2)cc1)C1CCCO1 (stereo not given) | EC50 | 22.9 µM (active)
CC(C)(C)c1ccc(C(=O)NC(=S)Nc2ccc(N3CCOCC3)cc2)cc1 | EC50 | > 150 µM (not active)
Cc1cc[n+](CC(=O)c2cccc([N+](=O)[O-])c2)c2ccccc12 | EC50 | > 150 µM (inconclusive)

====

Parameter AC50: see the listing below.
Molecular target: Microphthalmia-associated transcription factor (Homo sapiens, UniProt O75030)
Sequence (O75030 whole entry): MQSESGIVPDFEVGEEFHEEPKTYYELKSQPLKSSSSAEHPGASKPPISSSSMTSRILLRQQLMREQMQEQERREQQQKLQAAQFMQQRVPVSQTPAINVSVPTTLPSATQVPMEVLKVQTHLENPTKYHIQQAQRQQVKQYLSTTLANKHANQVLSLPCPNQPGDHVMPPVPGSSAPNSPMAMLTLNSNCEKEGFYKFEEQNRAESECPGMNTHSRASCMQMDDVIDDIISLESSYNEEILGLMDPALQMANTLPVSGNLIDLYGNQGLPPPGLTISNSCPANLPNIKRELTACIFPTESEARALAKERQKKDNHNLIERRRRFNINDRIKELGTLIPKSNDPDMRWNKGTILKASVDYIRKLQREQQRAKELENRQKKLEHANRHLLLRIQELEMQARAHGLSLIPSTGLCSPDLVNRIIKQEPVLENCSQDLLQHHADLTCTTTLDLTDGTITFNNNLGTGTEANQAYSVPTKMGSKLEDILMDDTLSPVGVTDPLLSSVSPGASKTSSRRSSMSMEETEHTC
Assay: TRPM1 promoter luciferase signal decrease, dose response, MITF inhibitor project, cell-based, SK-MEL-5, cherry-picked, set 3 (AID 493073);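 further: SK-MEL-5 melanoma cells with luciferase driven by the MITF target TRPM1 promoter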
Assay type: functional
Active and inactive are the calls of the source.
MEASURED_METRIC: AC50

MOLECULE | MEASUREMENT
CC1CCC(C(C)C)C(OC(=O)C[n+]2cc(-c3ccc(Cl)cc3)n3c2CCCCC3)C1 (stereo unspecified) | 6.97 µM (active)
O=C(COC(=O)CCN1C(=O)/C(=C\C=C\c2ccccc2)SC1=S)Nc1cc(F)ccc1F | 7.49 µM (active)
COc1ccc(Br)cc1C(C[N+](=O)[O-])c1c(N)n(C)c(=O)n(C)c1=O (stereo unspecified) | 8.73 µM (active)
O=C(Nc1ccccc1N1CCOCC1)c1ccc([N+](=O)[O-])s1 | 12.3 µM (active)
Nc1ccc(-c2ncc(-c3ccccc3)o2)cc1 | 0.171 µM (active)
O=C(Nc1ccc(OC(F)(F)F)cc1)c1n[nH]cc1[N+](=O)[O-] | 0.601 µM (active)
O=C(CCl)Nc1cccc(-c2cnc3ccccc3n2)c1 | 4.02 µM (active)
O=C(CCl)N1c2ccccc2CCc2ccccc21 | 5.54 µM (active)
CC(C)C(=O)NC(c1ccco1)c1ccc2cccnc2c1O (stereo unspecified) | 8.18 µM (active)
C/C(=C\c1ccc(N(C)C)cc1)[N+](=O)[O-] | 13.1 µM (active)
C/C(=N\NC(=O)COc1ccccc1-c1ccccc1)c1ccccn1 | 4.58 µM (active)
